# measurement_target: human RARγ (Homo sapiens)
# Sequence (P13631 whole entry): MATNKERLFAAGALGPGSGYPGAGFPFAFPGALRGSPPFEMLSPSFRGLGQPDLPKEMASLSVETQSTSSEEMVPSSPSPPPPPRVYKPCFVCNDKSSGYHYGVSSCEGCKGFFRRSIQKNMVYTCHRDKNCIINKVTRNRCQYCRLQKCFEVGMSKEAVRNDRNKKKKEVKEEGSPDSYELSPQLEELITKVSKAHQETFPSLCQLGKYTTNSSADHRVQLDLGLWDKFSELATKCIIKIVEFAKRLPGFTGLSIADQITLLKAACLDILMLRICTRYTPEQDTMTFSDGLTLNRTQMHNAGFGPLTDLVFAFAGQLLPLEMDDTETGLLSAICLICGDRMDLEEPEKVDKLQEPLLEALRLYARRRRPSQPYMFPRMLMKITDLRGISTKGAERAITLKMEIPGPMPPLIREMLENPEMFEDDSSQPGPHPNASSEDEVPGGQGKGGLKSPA
# method_notes: Transcription-promoting activity via RAR (PLAP reporter in COS-1 cells), RAR-γ
# Type: cell-based
# Parameters: expressed in transfected cells; host or cells: COS-1 (African green monkey kidney), transient lipofection
# condition_set: Relative ED30: ED30 of all-trans-retinoic acid for each receptor = 1
Response field label takes true when Transcription promoting activity ED30* RAR-γ is strictly below 200 and false in all other cases.

>>> label_class("CCn1nc(-c2ccc(-c3ccc(C(=O)O)cc3)[nH]2)cc1C(C)C [drawing 29]")
"true"
>>> label_class("CC1CCCN(C)c2ncc(-c3ccc(-c4ccc(C(=O)O)cc4)[nH]3)nc21 (stereo not drawn) [drawing 28]")
"true"
>>> label_class("COCc1cc2c(cc1-c1ccc(-c3ccc(C(=O)O)cc3)[nH]1)C(C)(C)CCC2(C)C [drawing 30]")
"true"
>>> label_class("CC1(C)CCC(C)(C)c2nc(-c3ccc(-c4ccc(C(=O)O)cc4)[nH]3)cnc21 [drawing 26]")
"true"
>>> label_class("CC1(C)CCCc2ncc(-c3ccc(-c4ccc(C(=O)O)cc4)[nH]3)nc21 [drawing 27]")
"true"
>>> label_class("C[Si](C)(C)c1cc(C(=O)Nc2ccc(C(=O)O)cc2)cc([Si](C)(C)C)c1 [drawing 31]")
"false"

----------
# measurement_target: human RARα (Homo sapiens, UniProt P10276)
# Sequence (P10276 1-462): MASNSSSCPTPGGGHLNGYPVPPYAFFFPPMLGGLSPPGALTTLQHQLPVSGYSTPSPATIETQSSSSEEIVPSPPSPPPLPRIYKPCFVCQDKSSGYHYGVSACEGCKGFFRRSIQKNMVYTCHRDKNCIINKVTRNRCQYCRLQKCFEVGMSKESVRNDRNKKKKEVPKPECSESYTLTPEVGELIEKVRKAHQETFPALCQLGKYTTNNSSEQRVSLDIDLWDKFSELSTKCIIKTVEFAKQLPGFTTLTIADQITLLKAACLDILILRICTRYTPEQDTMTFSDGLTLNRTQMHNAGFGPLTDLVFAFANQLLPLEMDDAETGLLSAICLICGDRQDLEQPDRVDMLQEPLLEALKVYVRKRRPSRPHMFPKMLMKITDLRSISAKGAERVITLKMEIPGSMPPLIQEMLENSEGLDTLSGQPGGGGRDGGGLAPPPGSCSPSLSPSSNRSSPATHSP
# method_notes: RAR binding assay (inhibition of 3H-all-trans-retinoic acid binding), RAR-α
# Design: expressed in transfected cells
# condition_set: nuclear extract of BHK cells expressing human RARα, read-out: Receptor binding assay IC50 (nM) RAR-α
# Protocol: Cells constantly expressing RARα, β and γ proteins were prepared by introducing human RARα, β and γ genes into BHK (baby hamster kidney) cells. A nuclear fraction of these cells was used to construct an experimental system for measuring the specific binding of all-trans-retinoic acid to RAR, and in this experimental system, the ability of each test compound to bind to […] was examined by measuring the degree of inhibition of binding. […]
IC50 values by entry
readout_name: IC50 (nM)

>>> reported_measurement("Cc1ccc(C)c2oc(-c3ccc(-c4ccc(C(=O)O)cc4)[nH]3)cc12 [drawing 8]")
1.4
>>> reported_measurement("O=C(O)c1ccc(-c2ccc(-c3cc4c(Cl)ccc(Cl)c4o3)[nH]2)cc1")
1
>>> reported_measurement("CC1CCCN(C)c2ncc(-c3ccc(-c4ccc(C(=O)O)cc4)[nH]3)nc21 (stereo not shown) [drawing 16]")
1
>>> reported_measurement("C[Si](C)(C)c1cc(C(=O)Nc2ccc(C(=O)O)cc2)cc([Si](C)(C)C)c1 [drawing 19]")
6.4
>>> reported_measurement("CC1(C)CCC(C)(C)c2nc(-c3ccc(-c4ccc(C(=O)O)cc4)[nH]3)cnc21 [drawing 14]")
0.6
>>> reported_measurement("COCc1cc2c(cc1-c1ccc(-c3ccc(C(=O)O)cc3)[nH]1)C(C)(C)CCC2(C)C [drawing 18]")
10
>>> reported_measurement("O=C(O)c1ccc(-c2ccc(-c3cc4c(F)ccc(Cl)c4o3)[nH]2)cc1")
3.8
>>> reported_measurement("O=C(O)c1ccc(-c2ccc(-c3cc4c(C(F)(F)F)ccc(F)c4o3)[nH]2)cc1 [drawing 11]")
0.6
